Target: TNFα trimer (Homo sapiens)
Assay: TNFα FP Competitive Binding Assay
Details: FP binding assay; 20 nM TNFα trimer, 1 nM OregonGreen488 probe; read-out: TNF IC50
This section presents compounds with their documented IC50 values.

Answered examples (2):
CC(=O)N1CCN(c2ncc(-c3ccc4c(=O)n(Cc5cccc(C#N)c5)n(Cc5ccccc5Cl)c4c3)cn2)C[C@H]1C [Example #134*]
1000 to 10000 nM
Cc1ccc(OC(F)F)c(Cn2c3cc(-c4cnc(C5(C)CCNC5)nc4)ccc3c(=O)n2C)c1 (centres unmarked) [Example 87]
< 1000 nM

Given the compound CC(=O)N1CCN(c2ncc(-c3ccc4c(=O)n(C)n(Cc5c[nH]cc5C(F)(F)F)c4c3)cn2)C[C@H]1C [Example 27.5] , what is its reported IC50?
< 1000 nM

Query (compound): Cc1ccc(OC(F)F)c(Cn2c3cc(-c4cnn5c([C@H](C)O)cnc5c4)ccc3c(=O)n2C)c1 (single isomer, unassigned) [Example 108] ; field requested: IC50
1000 to 10000 nM

Which measured IC50 value corresponds to C[C@@H]1CN(c2ncc(-c3ccc4c(=O)n(C)n(Cc5ccccc5OC(F)F)c4c3)cn2)CCN1C(=O)CO [Example 10.6] ?
< 1000 nM

* * *

Target: TNFα trimer (Homo sapiens, UniProt P01375)
Sequence (P01375 77-233 limits assumed): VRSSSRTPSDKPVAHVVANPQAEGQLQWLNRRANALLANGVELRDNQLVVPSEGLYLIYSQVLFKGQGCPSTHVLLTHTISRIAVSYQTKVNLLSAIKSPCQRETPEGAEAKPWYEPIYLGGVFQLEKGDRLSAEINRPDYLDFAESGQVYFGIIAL
Assay: TNFα FP Competitive Binding Assay
Settings: FP binding assay; 20 nM TNFα trimer, 1 nM OregonGreen488 probe; read-out: TNF IC50
Experimental endpoint: IC50

Cn1c(=O)c2ccc(-c3cnc(N4CCN(C(N)=O)CC4)nc3)cc2n1Cc1ccccc1OC(F)F
< 1 µM

Fill blank: measured IC50 of the compound Cc1ccc(OC(F)F)c(Cn2c3cc(-c4cnc(C(C)(C)CO)nc4)c(F)cc3c(=O)n2C)c1 is ____.
< 1 µM

Quick one: IC50 for Cn1c(=O)c2ccc(-c3cnc(N4CC(O)C4)nc3)cc2n1Cc1ccccc1OC(F)F ?
1 to 10 µM

Which IC50 reading was recorded for the compound Cn1c(=O)c2ccc(-c3cnc(N4CCOCC4)nc3)cc2n1Cc1cc(F)ccc1OC(F)F ?
1 to 10 µM

GET /values?readout=IC50&item= CC(=O)N1CCN(c2ncc(-c3ccc4c(=O)n(C)n(Cc5cc(Cc6cn[nH]c6)ccc5OC(F)F)c4c3)cn2)C[C@H]1C
< 1 µM

Fill in: IC50 of CC(Nc1ncc(-c2ccc3c(=O)n(C)n(Cc4ccccc4OC(F)F)c3c2)cn1)C(N)=O (stereo not shown) is ___
1 to 10 µM

Request the reported IC50 associated with Cn1c(=O)c2ccc(-c3cnc(N4CCC(c5nsc(=O)[nH]5)CC4)nc3)cc2n1Cc1ccccc1OC(F)F
1 to 10 µM

* * *

Below, each entry is listed with its recorded IC50.
Target: TNFα trimer (Homo sapiens, UniProt P01375)
Experiment: TNFα FP Competitive Binding Assay
Conditions: FP binding assay; 20 nM TNFα trimer, 1 nM OregonGreen488 probe; read-out: TNF IC50

Worked examples, 4 compounds total:
Cn1c(=O)c2ccc(-c3cnc(N4CC(CC(=O)O)C4)nc3)cc2n1Cc1ccccc1OC(F)F
> 10000 nM
CC(=O)N1CCN(c2ncc(-c3ccc4c(=O)n(C)n(Cc5cc(CO)ccc5OC(F)F)c4c3)cn2)CC1
< 1000 nM
CC(=O)N1CCN(c2ncc(-c3ccc4c(=O)n(C)n(Cc5cc(C)ccc5OC(F)F)c4c3)cn2)C[C@H]1C (single isomer, unassigned)
< 1000 nM
Cn1c(=O)c2ccc(-c3cnc(C(C)(C)O)nc3)cc2n1Cc1cc([C@H]2CC[C@@H](C#N)C2)ccc1OC(F)F (racemic) [Example 97]
< 1000 nM

What IC50 value was documented for this compound, Cc1ccccc1Cn1c2cc(-c3cnc(N4CCOCC4)nc3)ccc2c(=O)n1C ?
1000 to 10000 nM

Quick one: IC50 for CC(=O)N1CCN(c2ncc(-c3ccc4c(=O)n(C)n(Cc5cc(CC(C)O)ccc5OC(F)F)c4c3)cn2)C[C@H]1C (stereo partly shown) ?
1000 to 10000 nM

What does the record list as IC50 for Cc1ccc(OC(F)F)c(Cn2c3c(F)c(-c4cnc(C(C)(C)O)nc4)ccc3c(=O)n2C)c1 ?
1000 to 10000 nM
